Data provenance is ChEMBL document CHEMBL1201862.

System: HCT-116
Test: NCI tumour cell line growth inhibition, 48 h
Activity calls are given as the source filed them. Cut-off read from the data, not from the text of the source: active = GI50 up to about 1.1 µM and inactive = higher.
Returns: one label drawn from True for active, False for inactive

As a guide, the following entries are already answered.
INSERT INTO results (molecule, class_name) VALUES
  ('CCCCCCCCCC(=O)OCC1OC(n2cc(F)c(=O)[nH]c2=O)C(NC(=O)OCc2ccccc2)C(OC(=O)CCCCCCCCC)C1O (stereo unspecified)', 'False'),
  ('O=[N+]([O-])c1cccc(C2=NN(c3ccccc3)C[N+](c3ccc(Br)cc3)=N2)c1', 'False'),
  ('CC(C)CCCC(C)[C@H]1CC[C@H]2n3c(nc4ccccc43)CCC[C@]12C (stereo partly specified)', 'False'),
  ('COC(=O)c1ccccc1/C=C1/Cc2cccc(C)c2C1=O', 'False'),
  ('CCC(/C(=N/NC(=O)C[N+](C)(C)C)c1ccccc1)C1OC(=O)c2ccccc21 (stereo unspecified)', 'False');

query: GET /call?item= OC(NN=C1CCCC1)(C(F)(F)Cl)C(F)(F)Cl returns the recorded outcome of this test.
result: False

query: Can you handle NCCCC[C@H](N)C(=O)Nc1ccc(-c2nc3ccccc3s2)cc1 next?
result: False

query: Can you handle O=c1[nH]c(=S)[nH]c2c(C3OC(CO)C(O)C3O)nsc12 (stereo unspecified) next?
result: False

query: Can you handle CCC(=O)OC1CCn2c1nc1c2C(=O)C(C)=C(N2CC2)C1=O (stereo unspecified) next?
result: True
